Test system: CAL-12T
assay-overview: relative viability (nuclei count vs DMSO), 5 days (fraction); higher = more cells survive
stated-conditions: first compound 500 µM
Each record is given met if its reported relative viability is strictly below 0.04. Records at or above 0.04 are given not met.

Would you please look over these solved cases?
Task item: Consider the compound O=C(O)CCCCC(CCSCc1ccccc1)SCc1ccccc1 (stereo not given) [CPI-613] + CS(=O)(=O)CCNCc1ccc(-c2ccc3ncnc(Nc4ccc(OCc5cccc(F)c5)c(Cl)c4)c3c2)o1 [Lapatinib] (partner 2 µM) . Is its relative viability strictly less than 0.04?
Reply: not met

Task item: Same question, O=C(O)CCCCC(CCSCc1ccccc1)SCc1ccccc1 (stereo not given) [CPI-613] + NC(=O)Nc1cc(-c2cccc(F)c2)sc1C(=O)N[C@H]1CCCNC1 [AZD7762] (partner 0.2 µM) this time
Reply: not met

Task item: Please give the result for O=C(O)CCCCC(CCSCc1ccccc1)SCc1ccccc1 (stereo not given) [CPI-613] + Cc1cc(Nc2cc(N3CCN(C)CC3)nc(Sc3ccc(NC(=O)C4CC4)cc3)n2)n[nH]1 [Tozasertib] (partner 0.1 µM) too.
Reply: met

// switching to the query compound
Task item: # check: relative viability < 0.04 for O=C(O)CCCCC(CCSCc1ccccc1)SCc1ccccc1 (stereo not given) [CPI-613] + CC(=O)Nc1cccc(-n2c(=O)n(C3CC3)c(=O)c3c(Nc4ccc(I)cc4F)n(C)c(=O)c(C)c32)c1 [Trametinib] (partner 0.02 µM)
Reply: met

###

List of relative viability values.
System: HCC-78
assay-overview: relative viability (nuclei count vs DMSO), 5 days (fraction); higher = more cells survive
stated-conditions: first compound 50 µM
Please respond with just the number, no unit label.

# count of solved cases: 3
Task item: Would you kindly share the measured relative viability for O=C(O)CCCCC(CCSCc1ccccc1)SCc1ccccc1 (centres undefined) [CPI-613] + O=C(c1cc(Cc2n[nH]c(=O)c3ccccc23)ccc1F)N1CCN(C(=O)C2CC2)CC1 [Olaparib] (partner 8 µM) ?
Reply: 0.857

Task item: Also O=C(O)CCCCC(CCSCc1ccccc1)SCc1ccccc1 (centres undefined) [CPI-613] + CC(=O)c1c(C)c2cnc(Nc3ccc(N4CCNCC4)cn3)nc2n(C2CCCC2)c1=O [Palbociclib] (partner 0.5 µM) , if possible.
Reply: 0.473

Task item: Queued: O=C(O)CCCCC(CCSCc1ccccc1)SCc1ccccc1 (centres undefined) [CPI-613] + COc1cc2c(Oc3ccc(NC(=O)C4(C(=O)Nc5ccc(F)cc5)CC4)cc3F)ccnc2cc1OCCCN1CCOCC1 [Foretinib] (partner 0.25 µM)
Reply: 0.545

Turning now to a further compound:
Task item: Any idea what relative viability was measured for O=C(O)CCCCC(CCSCc1ccccc1)SCc1ccccc1 (centres undefined) [CPI-613] + COc1cccc2cc(-c3nc([C@H]4CC[C@H](C(=O)O)CC4)n4ncnc(N)c34)[nH]c12 [OSI-027] (partner 0.5 µM) ?
Reply: 0.373

###

Test system: SW 900
assay-overview: relative viability (nuclei count vs DMSO), 5 days (fraction); higher = more cells survive
stated-conditions: first compound 0.4 µM
quantity-kind: relative viability
// return just the number, without any unit appended

Task item: Quick one: relative viability of Cc1sc2c(c1C)C(c1ccc(Cl)cc1)=N[C@@H](CC(=O)OC(C)(C)C)c1nnc(C)n1-2 [JQ1] + CCNC(=O)c1noc(-c2cc(C(C)C)c(O)cc2O)c1-c1ccc(CN2CCOCC2)cc1 [Luminespib] (partner 0.01 µM) ?
Reply: 0.169

Task item: Let us now turn to Cc1sc2c(c1C)C(c1ccc(Cl)cc1)=N[C@@H](CC(=O)OC(C)(C)C)c1nnc(C)n1-2 [JQ1] + COc1cccc2cc(-c3nc([C@H]4CC[C@H](C(=O)O)CC4)n4ncnc(N)c34)[nH]c12 [OSI-027] (partner 0.5 µM)
Reply: 0.352

More entries:
Task item: Name the reported relative viability value associated with the compound Cc1sc2c(c1C)C(c1ccc(Cl)cc1)=N[C@@H](CC(=O)OC(C)(C)C)c1nnc(C)n1-2 [JQ1] + O=C(CCCCCCC(=O)Nc1ccccc1)NO [Vorinostat] (partner 1 µM)
Reply: 0.332

Task item: Another: Cc1sc2c(c1C)C(c1ccc(Cl)cc1)=N[C@@H](CC(=O)OC(C)(C)C)c1nnc(C)n1-2 [JQ1] + Cc1nc(Nc2ncc(C(=O)Nc3c(C)cccc3Cl)s2)cc(N2CCN(CCO)CC2)n1 [Dasatinib] (partner 0.075 µM)
Reply: 0.298

Task item: Entry to check: Cc1sc2c(c1C)C(c1ccc(Cl)cc1)=N[C@@H](CC(=O)OC(C)(C)C)c1nnc(C)n1-2 [JQ1] + Cc1cc(Nc2cc(N3CCN(C)CC3)nc(Sc3ccc(NC(=O)C4CC4)cc3)n2)n[nH]1 [Tozasertib] (partner 0.1 µM)
Reply: 0.421

Data provenance is the supplement of paper PMC10307832.
